Here, each record is paired with measured Vmax data.
# Substrate: CCCC(=O)Oc1ccc([N+](=O)[O-])cc1
# test name: purified protein
# Assay type: biochemical, Lactobacillus johnsonii
# study conditions: HEPES pH 7.80, 25 °C (typical assay; saturation conditions as in ref 14), pH 7.8

protein: LJ0536 (cinnamoyl esterase) (Lactobacillus johnsonii; D138A) (protein, full length in p15TV-L, E. coli BL21(DE3); His6-tag removed by TEV for kinetics; crystals: tag uncleaved, protease-treated (subtilisin or V8), residues 1-245 modelled, four C-terminal residues lost) MATITLERDGLQLVGTREEPFGEIYDMAIIFHGFTANRNTSLLREIANSLRDENIASVRFDFNGHGDSDGKFENMTVLNEIEDANAILNYVKTDPHVRNIYLVGHSQGGVVASMLAGLYPDLIKKVVLLAPAATLKGAALEGNTQGVTYNPDHIPDRLPFKDLTLGGFYLRIAQQLPIYEVSAQFTKPVCLIHGTDDTVVSPNASKKYDQIYQNSTLHLIEGADHCFSDSYQKNAVNLTTDFLQNNNAF
units of measure: µmol/min/mg
Vmax: 1.23
//
protein: LJ0536 (cinnamoyl esterase) (Lactobacillus johnsonii; Q145A) (protein, full length in p15TV-L, E. coli BL21(DE3); His6-tag removed by TEV for kinetics; crystals: tag uncleaved, protease-treated (subtilisin or V8), residues 1-245 modelled, four C-terminal residues lost) MATITLERDGLQLVGTREEPFGEIYDMAIIFHGFTANRNTSLLREIANSLRDENIASVRFDFNGHGDSDGKFENMTVLNEIEDANAILNYVKTDPHVRNIYLVGHSQGGVVASMLAGLYPDLIKKVVLLAPAATLKGDALEGNTAGVTYNPDHIPDRLPFKDLTLGGFYLRIAQQLPIYEVSAQFTKPVCLIHGTDDTVVSPNASKKYDQIYQNSTLHLIEGADHCFSDSYQKNAVNLTTDFLQNNNAF
units of measure: µmol/min/mg
Vmax: 2.05
//
protein: LJ0536 (cinnamoyl esterase) (Lactobacillus johnsonii; H225A) (protein, full length in p15TV-L, E. coli BL21(DE3); His6-tag removed by TEV for kinetics; crystals: tag uncleaved, protease-treated (subtilisin or V8), residues 1-245 modelled, four C-terminal residues lost) MATITLERDGLQLVGTREEPFGEIYDMAIIFHGFTANRNTSLLREIANSLRDENIASVRFDFNGHGDSDGKFENMTVLNEIEDANAILNYVKTDPHVRNIYLVGHSQGGVVASMLAGLYPDLIKKVVLLAPAATLKGDALEGNTQGVTYNPDHIPDRLPFKDLTLGGFYLRIAQQLPIYEVSAQFTKPVCLIHGTDDTVVSPNASKKYDQIYQNSTLHLIEGADACFSDSYQKNAVNLTTDFLQNNNAF
units of measure: µmol/min/mg
Vmax: 0.65

Origin of measurements: paper PMC3158066
